# experimental-target: GST-Ap-NF-kB RHD (Exaiptasia pallida (Aiptasia), UniProt A0A913YAJ5 2-422)
# Sequence: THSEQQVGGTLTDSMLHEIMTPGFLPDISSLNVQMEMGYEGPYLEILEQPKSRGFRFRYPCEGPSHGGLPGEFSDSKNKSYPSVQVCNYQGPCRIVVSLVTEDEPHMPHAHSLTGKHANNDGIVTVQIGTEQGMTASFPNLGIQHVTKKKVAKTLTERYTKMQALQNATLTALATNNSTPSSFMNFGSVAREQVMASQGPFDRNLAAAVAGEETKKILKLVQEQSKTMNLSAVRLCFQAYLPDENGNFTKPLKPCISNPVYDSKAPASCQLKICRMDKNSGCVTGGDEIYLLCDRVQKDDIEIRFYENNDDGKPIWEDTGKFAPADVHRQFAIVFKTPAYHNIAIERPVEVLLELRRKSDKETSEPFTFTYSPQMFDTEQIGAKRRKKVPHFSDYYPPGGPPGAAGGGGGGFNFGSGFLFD
# procedure-summary: protein-binding microarray (PBM); PBM: ~300 nM protein, 6 mM HEPES pH 7.8, 80 mM KCl, 0.5 mM EDTA, 0.5 mM EGTA, 6% glycerol, 35 ng/ul poly-dIdC, 1% milk, 1 h, room temperature; Ap Aiptasia and Nv Nematostella (sea anemones) / Co Capsaspora / Aq Amphimedon (sponge) / Dm Drosophila / Hu human; RHD is the Rel homology domain; high values mean tight binding
# protocol-conditions: dsDNA, one strand shown
Mark yes for binding signal under 6 z-score, no if at or over.

- residue-string: "CCGATTAACATCAGAGATTTCCCTGATGTTAATCGGGTCTTGATTCGCTTGACGCTGCTG"
  assigned-label: "yes"
- residue-string: "CCGATTAACATCAGGACTTCCCCTGATGTTAATCGGGTCTTGATTCGCTTGACGCTGCTG"
  assigned-label: "no"
- residue-string: "CCGATTAACATCAGGGAAAGAACTGATGTTAATCGGGTCTTGATTCGCTTGACGCTGCTG"
  assigned-label: "yes"
- residue-string: "CCGATTAACATCAGGGGGAAACCTGATGTTAATCGGGTCTTGATTCGCTTGACGCTGCTG"
  assigned-label: "no"
- residue-string: "CCGATTAACATCAGATTTTCCCCTGATGTTAATCGGGTCTTGATTCGCTTGACGCTGCTG"
  assigned-label: "no"
- residue-string: "CCGATTAACATCACTGGGAGGGCTGATGTTAATCGGGTCTTGATTCGCTTGACGCTGCTG"
  assigned-label: "yes"
- residue-string: "CCGATTAACATCAGGGTATTACCTGATGTTAATCGGGTCTTGATTCGCTTGACGCTGCTG"
  assigned-label: "yes"
- residue-string: "CCGATTAACATCATTTCCCTTGATGATGTTAATCGGGTCTTGATTCGCTTGACGCTGCTG"
  assigned-label: "yes"
- residue-string: "CCGATTAACATCAACCCCCCCCATGATGTTAATCGGGTCTTGATTCGCTTGACGCTGCTG"
  assigned-label: "yes"
